# TESTED ON: T1, Csm2;Psy3 (Saccharomyces cerevisiae?;Saccharomyces …, UniProt P40465;Q12318 1-213;1-242, |)
# T1 sequence 1: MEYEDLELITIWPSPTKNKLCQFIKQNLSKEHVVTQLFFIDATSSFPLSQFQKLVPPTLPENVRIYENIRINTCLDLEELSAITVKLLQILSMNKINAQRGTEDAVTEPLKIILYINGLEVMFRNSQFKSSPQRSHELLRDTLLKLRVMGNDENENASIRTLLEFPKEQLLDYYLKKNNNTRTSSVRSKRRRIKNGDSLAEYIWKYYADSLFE
# T1 sequence 2: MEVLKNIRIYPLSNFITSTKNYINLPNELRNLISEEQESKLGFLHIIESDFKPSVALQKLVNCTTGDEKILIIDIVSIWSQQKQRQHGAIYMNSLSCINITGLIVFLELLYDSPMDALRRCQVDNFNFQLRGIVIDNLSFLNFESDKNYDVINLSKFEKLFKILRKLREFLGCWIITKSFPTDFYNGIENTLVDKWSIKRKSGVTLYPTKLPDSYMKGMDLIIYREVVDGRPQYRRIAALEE
# PROCEDURE SUMMARY: fluorescence polarization
RECORDED METRIC: pKd
Note on pKd: it is the negative log10 of concentration, concentration in mol/L.

Worked examples, 4 binders total:
| BINDER | pKd |
| --- | --- |
| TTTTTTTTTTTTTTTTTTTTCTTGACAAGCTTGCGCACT (ssDNA) [ss39] | 5.88 |
| Fork (20nt) (dsDNA) DNA 1: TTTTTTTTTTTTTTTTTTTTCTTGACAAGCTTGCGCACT DNA 2: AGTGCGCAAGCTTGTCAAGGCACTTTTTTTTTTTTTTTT | 6.12 |
| ds39 (dsDNA) DNA 1: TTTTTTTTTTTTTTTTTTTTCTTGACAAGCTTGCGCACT DNA 2: AGTGCGCAAGCTTGTCAAGAAAAAAAAAAAAAAAAAAAA | 5.84 |
| 5'-overhang (20nt) (dsDNA) DNA 1: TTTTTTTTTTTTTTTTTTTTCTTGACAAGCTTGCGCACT DNA 2: AGTGCGCAAGCTTGTCAAG | 6.02 |

Consider the binder 3'-overhang (20nt) (dsDNA) DNA 1: CTTGACAAGCTTGCGCACT DNA 2: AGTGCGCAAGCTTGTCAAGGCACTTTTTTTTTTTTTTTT and give its measured pKd. 5.90
